// values below are reported IC50
- system-tested: recombinant human CYP11B1 (Homo sapiens, UniProt P15538)
- Construct: enzyme-enriched microsomal fraction of the lysate
- Sequence (P15538 25-503): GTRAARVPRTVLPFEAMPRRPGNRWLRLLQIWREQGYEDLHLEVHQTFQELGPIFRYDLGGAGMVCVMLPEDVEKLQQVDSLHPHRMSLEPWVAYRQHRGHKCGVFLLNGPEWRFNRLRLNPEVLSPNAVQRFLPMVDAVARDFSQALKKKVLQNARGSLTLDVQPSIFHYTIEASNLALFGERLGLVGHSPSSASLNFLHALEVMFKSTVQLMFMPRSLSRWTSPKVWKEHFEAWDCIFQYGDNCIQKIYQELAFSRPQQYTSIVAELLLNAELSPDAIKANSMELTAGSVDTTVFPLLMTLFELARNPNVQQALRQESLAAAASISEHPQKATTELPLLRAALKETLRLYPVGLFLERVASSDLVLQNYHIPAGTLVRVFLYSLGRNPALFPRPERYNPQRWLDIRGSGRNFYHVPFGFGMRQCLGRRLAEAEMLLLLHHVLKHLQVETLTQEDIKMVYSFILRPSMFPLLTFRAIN
- experiment-notes: CYP11B1 enzyme assay with enzyme enriched microsomes, cortisol measured by LC-MS
- particulars: microsomes from V79-4 cells; 11-deoxycortisol at Km; read-out: hCYP11B1 IC50

Some entries whose results are on file:
>>> value("Fc1cc2ncn(-c3nc4ccc(F)c(F)c4n3C3CC3)c2cc1F")
"1 to 10 µM"
>>> value("CS(=O)(=O)Nc1ccc2ncn(-c3nc4ccc(F)c(F)c4n3C3CC3)c2c1")
"> 10 µM"

May I ask what IC50 has been recorded for "Cc1cccc2c1ncn2-c1nc2ccc(F)cc2n1C1CC1" ?
> 10 µM

----------
- system-tested: recombinant human CYP11B1 (Homo sapiens, UniProt P15538)
- Construct: made in house; host or cells: V79-4 cells (Chinese hamster lung fibroblasts); enzyme-enriched microsomal fraction of the lysate
- experiment-notes: CYP11B1 enzyme assay with enzyme enriched microsomes, cortisol measured by LC-MS
- Format: biochemical
- particulars: microsomes from V79-4 cells; 11-deoxycortisol at Km; read-out: hCYP11B1 IC50
measured-property: IC50

Some entries whose results are on file:
>>> value("CS(=O)(=O)Nc1ccc2ncn(-c3nc4cc(F)c(F)cc4n3C3CC3)c2c1 [Example 45]")
"> 10 µM"
>>> value("Fc1cc2ncn(-c3nc4ccc(Cl)nc4n3C3CC3)c2cc1F [Example 29]")
"1 to 10 µM"

May I ask what IC50 has been recorded for N#Cc1ccc2ncn(-c3nc4ccc(F)cc4n3C3CC3)c2c1 [Example 7] ?
> 10 µM

May I ask what IC50 has been recorded for Fc1cc2nc(-n3cnc4ccncc43)n(C3CC3)c2cc1F [Example 36] ?
1 to 10 µM

May I ask what IC50 has been recorded for N#Cc1ccc2nc(-n3cnc4cc(F)c(F)cc43)n(C3CC3)c2n1 [Example 32] ?
1 to 10 µM

----------
- system-tested: recombinant human CYP11B2 (Homo sapiens, UniProt P19099)
- Construct: enzyme-enriched microsomal fraction of the lysate
- Sequence (P19099 25-503): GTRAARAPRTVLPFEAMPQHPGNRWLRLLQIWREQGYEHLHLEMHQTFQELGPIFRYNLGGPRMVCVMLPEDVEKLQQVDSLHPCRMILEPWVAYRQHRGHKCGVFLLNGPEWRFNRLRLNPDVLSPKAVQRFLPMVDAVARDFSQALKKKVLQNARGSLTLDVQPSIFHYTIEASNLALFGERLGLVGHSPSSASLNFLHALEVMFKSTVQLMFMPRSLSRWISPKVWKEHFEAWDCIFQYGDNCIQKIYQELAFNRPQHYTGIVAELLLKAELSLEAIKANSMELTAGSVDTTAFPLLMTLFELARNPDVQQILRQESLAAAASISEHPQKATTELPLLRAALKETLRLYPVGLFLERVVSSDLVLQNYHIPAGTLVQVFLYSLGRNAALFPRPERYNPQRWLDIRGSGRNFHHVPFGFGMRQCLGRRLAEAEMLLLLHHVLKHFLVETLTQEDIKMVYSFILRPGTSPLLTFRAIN
- experiment-notes: CYP11B2 enzyme assay with enzyme enriched microsomes, aldosterone measured by LC-MS
- particulars: microsomes from V79-4 cells; 11-deoxycorticosterone at Km; read-out: hCYP11B2 IC50
measured-property: IC50

Some entries whose results are on file:
>>> value("Fc1cc2nc(-n3cnc4ccccc43)n(C3CC3)c2cc1F")
"1 to 100 nM"
>>> value("Fc1ccc2nc(-n3cnc4cc(C(F)(F)F)ccc43)n(C3CC3)c2c1")
"1 to 100 nM"
>>> value("Cc1ccc2ncn(-c3nc4ccc(F)cc4n3C3CC3)c2c1")
"1 to 100 nM"

May I ask what IC50 has been recorded for "Cc1cccc2c1ncn2-c1nc2ccc(F)cc2n1C1CC1" ?
1000 to 10000 nM

May I ask what IC50 has been recorded for "Fc1cc2ncn(-c3nc4ccc(Cl)cc4n3C3CC3)c2cc1F" ?
1 to 100 nM

May I ask what IC50 has been recorded for "O=C(O)c1cc2c(cn1)ncn2-c1nc2cc(F)c(F)cc2n1C1CC1" ?
1000 to 10000 nM

May I ask what IC50 has been recorded for "Fc1cc2nc(-n3cnc4cnccc43)n(C3CC3)c2cc1F" ?
1 to 100 nM

May I ask what IC50 has been recorded for "COc1ccc2ncn(-c3nc4ccc(F)cc4n3C3CC3)c2c1" ?
1 to 100 nM

May I ask what IC50 has been recorded for "CCn1c(-n2cnc3cc(F)c(F)cc32)nc2ccc(C#N)cc21" ?
1 to 100 nM

Reference for the values: patent US12358893B2
